molecular target: V2 Receptor (Rattus norvegicus, UniProt Q00788); construct: rat kidney plasma membrane preparations; from tissue; host or cells: rat kidney plasma membranes; test: V2 Receptor Binding Assay ([3H]-Arg-vasopressin, rat kidney plasma membrane); conditions: 4° C., pH 8.0
Sequence (Q00788 whole entry): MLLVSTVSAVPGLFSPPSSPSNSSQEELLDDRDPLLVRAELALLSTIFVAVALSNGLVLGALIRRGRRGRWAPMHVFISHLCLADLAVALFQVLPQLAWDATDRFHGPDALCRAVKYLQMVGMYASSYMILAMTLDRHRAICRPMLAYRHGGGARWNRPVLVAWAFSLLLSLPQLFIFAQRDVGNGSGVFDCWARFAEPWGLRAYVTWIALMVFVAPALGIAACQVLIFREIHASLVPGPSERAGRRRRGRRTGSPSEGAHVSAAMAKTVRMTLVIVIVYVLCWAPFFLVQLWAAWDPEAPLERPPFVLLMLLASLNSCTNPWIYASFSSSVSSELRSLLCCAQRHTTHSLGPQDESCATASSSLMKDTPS
Counter-ions that a name gives are not always drawn.
Please respond with reported pIC50 for every item in the list.
Just so you know, pIC50 here is -log10 of the concentration in molar units; reply with that number alone.

// query For COc1cc(NC(=O)c2ccccc2OCCCCN2CCN(C(C)=O)CC2)ccc1C(=O)N1CCCCc2cc(Cl)ccc21 [Test Compound 49] , what is its reported pIC50?
// result 7.28

// query For COc1ccccc1CC(=O)Nc1ccc(C(=O)N2CCCC(N(C)C)c3ccccc32)cc1 (stereo not drawn) [Test Compound 4] , what is its reported pIC50?
// result 7.21

// query For Cc1ccccc1C(=O)Nc1ccc(C(=O)N2CCCC(OCC(=O)NC3CCNCC3)c3cc(Cl)ccc32)c(C)c1 (stereo not drawn) [Test Compound 57, hydrochloride] , what is its reported pIC50?
// result 8.05

// query For COc1cc(NC(=O)c2ccccc2C)ccc1C(=O)N1CCCC(CC(=O)N2CCCCC2)c2cc(F)ccc21 (stereo not drawn) [Test Compound 58] , what is its reported pIC50?
// result 7.80

// query For COc1cc(C(=O)N2CCCC(CC(=O)NC3CCNCC3)c3cc(Cl)ccc32)ccc1NC(=O)c1ccccc1C (stereo not drawn) [Test Compound 30, hydrochloride] , what is its reported pIC50?
// result 8.05

// query For COc1cc(NC(=O)c2ccccc2C)ccc1C(=O)N1CCCC(CCN2CCN(C)CC2)c2cc(Cl)ccc21 (stereo not drawn) [Test Compound 55, dihydrochloride] , what is its reported pIC50?
// result 7.92

----------
target: V1 Receptor (Rattus norvegicus); assay: V1 Receptor Binding Assay ([3H]-Arg-vasopressin, rat liver plasma membrane); conditions: 37° C., 10 minutes, pH 8.0
Where a name gives a salt, the structure may show the parent alone.
# note: boundary value 40 nM maps to 0 (no); IC50 below it maps to 1 (yes)

// query Consider the molecule Cc1ccccc1C(=O)Nc1ccc(C(=O)N2CCCC(C#N)c3cc(Cl)ccc32)cc1Cl (stereo not shown) . Is its IC50 strictly less than 40 nM?
// result 0 (no)

// query Consider the molecule COc1cc(NC(=O)c2ccccc2C)ccc1C(=O)N1CCCC(CC(=O)N2CCCCC2)c2cc(F)ccc21 (stereo not shown) . Is its IC50 strictly less than 40 nM?
// result 0 (no)

// query Consider the molecule COc1cc(NC(=O)c2ccccc2C)ccc1C(=O)N1CCCC(CC(=O)N2CCN(C)CC2)c2cc(Cl)ccc21 (stereo not shown) . Is its IC50 strictly less than 40 nM?
// result 1 (yes)

// query Consider the molecule COc1cc(NC(=O)c2ccccc2C)ccc1C(=O)N1CCCC(OCCN2CCN(C(C)=O)CC2)c2cc(Cl)ccc21 (stereo not shown) [Test Compound 40, hydrochloride] . Is its IC50 strictly less than 40 nM?
// result 0 (no)

// query Consider the molecule COc1cc(C(=O)N2CCCC(CC(=O)N(C)C)c3cc(Cl)ccc32)ccc1NC(=O)c1ccccc1C (stereo not shown) . Is its IC50 strictly less than 40 nM?
// result 1 (yes)

// query Consider the molecule COCC(=O)OC1CCCN(C(=O)c2ccc(NC(=O)c3ccccc3C)cc2)c2ccc(Cl)cc21 (stereo not shown) . Is its IC50 strictly less than 40 nM?
// result 1 (yes)

// query Consider the molecule COc1cc(NC(=O)c2ccccc2Cl)ccc1C(=O)N1CCCC(CC(=O)NC2CCN(Cc3ccccc3)CC2)c2cc(Cl)ccc21 (stereo not shown) [Test Compound 48, hydrochloride] . Is its IC50 strictly less than 40 nM?
// result 1 (yes)

// query Consider the molecule COc1cc(NC(=O)c2ccccc2C)ccc1C(=O)N1CCCC(OCCCOS(=O)(=O)c2ccc(C)cc2)c2cc(Cl)ccc21 (stereo not shown) . Is its IC50 strictly less than 40 nM?
// result 0 (no)

// query Consider the molecule COc1cc(NC(=O)c2ccccc2C)ccc1C(=O)N1CCCC(OCCN2CCNCC2)c2cc(Cl)ccc21 (stereo not shown) [Test Compound 43, dihydrochloride] . Is its IC50 strictly less than 40 nM?
// result 0 (no)

// query Consider the molecule COc1cc(NC(=O)c2ccccc2C)ccc1C(=O)N1CCCC(OC(=O)CN2CCOCC2)c2cc(Cl)ccc21 (stereo not shown) [Test Compound 17, hydrochloride] . Is its IC50 strictly less than 40 nM?
// result 1 (yes)

----------
Please respond with reported IC50 for every item in the list.
target: V1 Receptor (Rattus norvegicus, UniProt P30560); assay: V1 Receptor Binding Assay ([3H]-Arg-vasopressin, rat liver plasma membrane); settings: 37° C., 10 minutes, pH 8.0
Sequence (P30560 whole entry): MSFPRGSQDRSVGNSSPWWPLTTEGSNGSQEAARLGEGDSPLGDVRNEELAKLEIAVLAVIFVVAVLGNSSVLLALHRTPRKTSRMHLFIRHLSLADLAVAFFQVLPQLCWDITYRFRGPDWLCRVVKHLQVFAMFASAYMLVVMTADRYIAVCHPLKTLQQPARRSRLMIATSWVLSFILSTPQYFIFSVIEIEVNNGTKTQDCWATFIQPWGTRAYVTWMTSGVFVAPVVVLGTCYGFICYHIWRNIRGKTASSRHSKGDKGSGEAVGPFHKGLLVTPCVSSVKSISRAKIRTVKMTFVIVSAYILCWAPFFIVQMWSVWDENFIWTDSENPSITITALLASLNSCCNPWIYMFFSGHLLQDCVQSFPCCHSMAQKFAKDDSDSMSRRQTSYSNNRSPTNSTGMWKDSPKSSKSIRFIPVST
Where a name gives a salt, the structure may show the parent alone.
Provide the reading as a plain figure in nM.

// query For COc1cc(NC(=O)c2ccccc2C)ccc1C(=O)N1CCCC(CCN2CCC(N(C)C)CC2)c2cc(Cl)ccc21 (stereo not shown) [Test Compound 54, dihydrochloride] , what is its reported IC50?
// result 54

// query For COc1cc(C(=O)N2CCCC(CC(=O)N3CCN(C)CC3)c3cc(Cl)ccc32)ccc1NC(=O)c1ccccc1C (stereo not shown) , what is its reported IC50?
// result 34

// query For Cc1ccccc1CC(=O)Nc1ccc(C(=O)N2CCCC(O)c3cc(Cl)ccc32)c(C)c1 (stereo not shown) , what is its reported IC50?
// result 320

// query For COc1cc(NC(=O)c2ccccc2C)ccc1C(=O)N1CCCC(OC(=O)[C@@H](N)CCCCN)c2cc(Cl)ccc21 (stereo partly shown) [Test Compound 29, dihydrochloride] , what is its reported IC50?
// result 40

// query For COc1cc(NC(=O)Cc2ccccc2C)ccc1C(=O)N1CCCC(O)c2cc(Cl)ccc21 (stereo not shown) , what is its reported IC50?
// result 55

// query For COc1cc(NC(=O)c2ccccc2C)ccc1C(=O)N1CCCC(CC(=O)N2CCNCC2)c2cc(Cl)ccc21 (stereo not shown) [Test Compound 52, hydrochloride] , what is its reported IC50?
// result 16

// query For COc1cc(NC(=O)c2ccccc2C)ccc1C(=O)N1CCCC(OCCN2CCN(C)CC2)c2cc(F)ccc21 (stereo not shown) , what is its reported IC50?
// result 330

// query For COc1cc(NC(=O)c2ccccc2C)ccc1C(=O)N1CCCC(OC(=O)[C@@H](N)CCSC)c2cc(Cl)ccc21 (single isomer, unassigned) [Test Compound 13, hydrochloride] , what is its reported IC50?
// result 20

// query For CSCC[C@H](N)C(=O)OC1CCCN(C(=O)c2ccc(NC(=O)c3ccccc3C)cc2C)c2ccc(Cl)cc21 (single isomer, unassigned) [Test Compound 14, hydrochloride] , what is its reported IC50?
// result 220

// query For COc1cc(NC(=O)c2ccccc2Br)ccc1C(=O)N1CCCC(CC(=O)N(C)C)c2cc(F)ccc21 (stereo not shown) , what is its reported IC50?
// result 18

// query For COc1cc(NC(=O)c2ccccc2Cl)ccc1C(=O)N1CCCC(CC(=O)N2CCC(N(C)C)CC2)c2cc(Cl)ccc21 (stereo not shown) [Test Compound 45, hydrochloride] , what is its reported IC50?
// result 8

// query For COc1cc(NC(=O)c2ccccc2C)ccc1C(=O)N1CCCC(CN2CCN(C)CC2)c2cc(F)ccc21 (stereo not shown) , what is its reported IC50?
// result 89

// query For COc1cc(C(=O)N2CCCCc3cc(Cl)ccc32)ccc1NC(=O)c1ccccc1OCCCCN1CCN(C(C)=O)CC1 , what is its reported IC50?
// result 7

----------
biological target: V2 Receptor (Rattus norvegicus, UniProt Q00788); construct: rat kidney plasma membrane preparations; test: V2 Receptor Binding Assay ([3H]-Arg-vasopressin, rat kidney plasma membrane); settings: 4° C., pH 8.0
Counter-ions that a name gives are not always drawn.
experimental readout: IC50 (nM)
Provide the reading as a plain figure in nM.

// query Recall the recorded IC50 for COc1cc(NC(=O)c2ccccc2C)ccc1C(=O)N1CCCC(OC(=O)[C@@H](N)CCSC)c2cc(Cl)ccc21 (single isomer, unassigned) [Test Compound 13, hydrochloride] with V2 Receptor (Rattus norvegicus, UniProt Q00788) and state it.
// result 6

// query Recall the recorded IC50 for COC(=O)[C@@H]1CCCN1C(=O)COC1CCCN(C(=O)c2ccc(NC(=O)c3ccccc3C)cc2Cl)c2ccc(F)cc21 (some centres unmarked) [Test Compound 23] with V2 Receptor (Rattus norvegicus, UniProt Q00788) and state it.
// result 11

// query Recall the recorded IC50 for COc1cc(NC(=O)c2ccccc2C)ccc1C(=O)N1CCCC(CCN2CCC(N(C)C)CC2)c2cc(Cl)ccc21 (centres unmarked) [Test Compound 54, dihydrochloride] with V2 Receptor (Rattus norvegicus, UniProt Q00788) and state it.
// result 4

// query Recall the recorded IC50 for COc1cc(NC(=O)c2ccccc2Br)ccc1C(=O)N1CCCC(CC(=O)N2CCC(NC(C)=O)CC2)c2cc(F)ccc21 (centres unmarked) [Test Compound 60] with V2 Receptor (Rattus norvegicus, UniProt Q00788) and state it.
// result 10

// query Recall the recorded IC50 for COc1cc(NC(=O)c2ccccc2Cl)ccc1C(=O)N1CCCC(CC(=O)N2CCC(N(C)C)CC2)c2cc(Cl)ccc21 (centres unmarked) [Test Compound 45, hydrochloride] with V2 Receptor (Rattus norvegicus, UniProt Q00788) and state it.
// result 4
